TARGET_SYSTEM: human melanocortin-4 (MC-4) receptors (Homo sapiens)
Construct: expressed in transfected cells; membrane fraction used
Sequence (P32245 whole entry): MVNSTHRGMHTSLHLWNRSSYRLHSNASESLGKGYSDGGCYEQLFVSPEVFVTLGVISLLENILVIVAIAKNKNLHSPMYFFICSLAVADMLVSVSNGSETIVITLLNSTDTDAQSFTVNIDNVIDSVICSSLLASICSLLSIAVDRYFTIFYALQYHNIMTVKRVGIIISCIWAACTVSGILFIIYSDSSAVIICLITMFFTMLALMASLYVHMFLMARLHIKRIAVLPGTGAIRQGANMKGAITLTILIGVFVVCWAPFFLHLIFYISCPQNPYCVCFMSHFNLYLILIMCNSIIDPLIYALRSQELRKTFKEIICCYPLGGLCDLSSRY
Format: binding
ASSAY_CONTEXT: HEK 293 cell membranes; about […] 125I-NDP-α-MSH; 180 minutes at 25 C; read-out: hMC4 IC50 (nM) 125I NDP-MSH
Square brackets hold non-standard residues; d marks the D form. Ends that are not written are not given here. Abu = CC[C@H](N)C(=O)O
// IC50 lookup, one value per entry

Consider the reported IC50 for these substances:
SUBSTANCE	TARGET_SYSTEM	IC50
AC[Abu]DP[Abu]AS[Abu]QCRFFRSACSCRVL (cysteine pairing not given here) [SEQ ID NO:16]	human melanocortin-4 (MC-4) receptors (Homo sapiens)	> 1000 nM
C[Abu]DPCAS[Abu]Q[Abu]RFFRSA[Abu]SCRVLSLNC (cysteine pairing not given here) [SEQ ID NO:18]	human melanocortin-4 (MC-4) receptors (Homo sapiens)	> 1000 nM
RNS[Abu]KPPAPAC[Abu]DP[Abu]AS[Abu]QCRFFRSACSCRVL (cysteine pairing not given here) [SEQ ID NO:15]	human melanocortin-4 (MC-4) receptors (Homo sapiens)	800 nM
C[Abu]DPCAT[Abu]Y[Abu]RFFNAF[Abu]YCRKLGTAMNPCSRT (cysteine pairing not given here) [SEQ ID NO:11]	human melanocortin-4 (MC-4) receptors (Homo sapiens)	> 1000 nM
RNSCKPPAPAC[Abu]DP[Abu]ASCQCRFFRSACSCRVL (cysteine pairing not given here) [SEQ ID NO:13]	human melanocortin-4 (MC-4) receptors (Homo sapiens)	1000 nM
His-Glu-Ser-Abu-Leu-Gly-Gln-Gln-Val-Pro-Cys-Abu-Asp-Pro-Abu-Ala-Thr-Abu-Tyr-Cys-Arg-Phe-Phe-Asn-Ala-Phe-Cys-Tyr-Cys-Arg-Lys-Leu [SEQ ID NO:4]	human melanocortin-4 (MC-4) receptors (Homo sapiens)	100 nM
RNSCKPPAPA[Abu][Abu]DP[Abu]ASCQCRFFRSACS[Abu]RVL (cysteine pairing not given here) [SEQ ID NO:14]	human melanocortin-4 (MC-4) receptors (Homo sapiens)	> 1000 nM
HESCLGQQVPC[Abu]DP[Abu]ATCY[Abu]RFFNAF[Abu]YCRKL (cysteine pairing not given here) [SEQ ID NO:5]	human melanocortin-4 (MC-4) receptors (Homo sapiens)	> 1000 nM
[Abu][Abu]DPCAS[Abu]QCRFFRSACS[Abu]RVLSLNC (cysteine pairing not given here) [SEQ ID NO:17]	human melanocortin-4 (MC-4) receptors (Homo sapiens)	> 1000 nM
Cys-Abu-Asp-Pro-Abu-Ala-Thr-Abu-Tyr-Cys-Arg-Phe-Phe-Asn-Ala-Phe-Cys-Tyr-Cys-Arg-Lys-Leu-Gly-Thr-Ala-Met-Asn-Pro-Abu-Ser-Arg-Thr [SEQ ID NO:10]	human melanocortin-4 (MC-4) receptors (Homo sapiens)	102 nM

Noted for [Abu][Abu]DPCAT[Abu]YCRFFNAFCY[Abu]RKLGTAMNPCSRT (cysteine pairing not given here) [SEQ ID NO:9] : its IC50 reads 600 nM

Noted for HESCLGQQVPC[Abu]DP[Abu]ATCYCRFFNAFCYCRKL (cysteine pairing not given here) [SEQ ID NO:2] : its IC50 reads 200 nM

Noted for HESCLGQQVP[Abu][Abu]DP[Abu]ATCYCRFFNAFCY[Abu]RKL (cysteine pairing not given here) [SEQ ID NO:3] : its IC50 reads 900 nM
